target: Protein cereblon/Apoptosis regulator Bcl-2 (Homo sapiens) (UniProt P10415+Q96SW2); assay: Protac activity at CRBN/BCL2 in human MOLT-4 cells assessed as induction of BCL2 degradation at 50 nM measured after 16 hrs by immunoblotting analysis; assay type: cell-based
Sequence (P10415 whole entry, looked up): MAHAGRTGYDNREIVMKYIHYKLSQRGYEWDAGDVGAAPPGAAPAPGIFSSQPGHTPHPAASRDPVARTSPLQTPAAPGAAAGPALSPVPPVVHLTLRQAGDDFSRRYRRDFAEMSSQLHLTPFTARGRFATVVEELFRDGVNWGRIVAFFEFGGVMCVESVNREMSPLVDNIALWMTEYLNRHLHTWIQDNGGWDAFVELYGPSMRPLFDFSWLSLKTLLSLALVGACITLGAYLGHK
Sequence (Q96SW2 whole entry, looked up): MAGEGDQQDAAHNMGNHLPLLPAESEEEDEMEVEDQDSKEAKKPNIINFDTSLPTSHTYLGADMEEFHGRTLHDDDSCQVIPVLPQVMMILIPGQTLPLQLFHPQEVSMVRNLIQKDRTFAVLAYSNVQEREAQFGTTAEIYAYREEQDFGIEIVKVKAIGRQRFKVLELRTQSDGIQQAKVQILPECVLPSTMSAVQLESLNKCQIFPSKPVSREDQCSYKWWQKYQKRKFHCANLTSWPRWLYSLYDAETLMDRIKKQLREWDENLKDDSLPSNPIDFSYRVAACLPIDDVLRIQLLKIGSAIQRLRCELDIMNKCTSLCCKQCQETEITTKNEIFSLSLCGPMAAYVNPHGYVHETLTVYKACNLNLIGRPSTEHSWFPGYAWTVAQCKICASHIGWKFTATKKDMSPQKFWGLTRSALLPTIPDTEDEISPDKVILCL
Activity calls are given as the source filed them. The calls are words filed in the database; no cut-off is given here.

ITEM SMILES	TARGET ENTITY	Activity
CN(CCCCCCCCNc1cccc2c1C(=O)N([C@@H]1CCC(=O)NC1=O)C2=O)CC[C@H](CSc1ccccc1)Nc1ccc(S(=O)(=O)NC(=O)c2ccc(N3CCN(CC4=C(c5ccc(Cl)cc5)CCC(C)(C)C4)CC3)cc2)cc1S(=O)(=O)C(F)(F)F	Protein cereblon/Apoptosis regulator Bcl-2 (Homo sapiens) (UniProt P10415+Q96SW2)	inactive
CN(CCOCCOCCOCCOCCNc1cccc2c1C(=O)N([C@@H]1CCC(=O)NC1=O)C2=O)CC[C@H](CSc1ccccc1)Nc1ccc(S(=O)(=O)NC(=O)c2ccc(N3CCN(CC4=C(c5ccc(Cl)cc5)CCC(C)(C)C4)CC3)cc2)cc1S(=O)(=O)C(F)(F)F	Protein cereblon/Apoptosis regulator Bcl-2 (Homo sapiens) (UniProt P10415+Q96SW2)	inactive
